MEASURED ON: T. vaginalis nucleoside transporters, Adenosine (LA)
ASSAY EXPLANATION: Low affinity adenosine transport
EXPERIMENTAL CONTEXT: read-out: Ki,app; inhibition of 20 µM [3H]-adenosine transport; average and SEM
ENDPOINT LABEL: Ki

Worked cases, Ki given:
| SMILES NOTATION | MEASUREMENT |
| --- | --- |
| O=c1cc[nH]c(=O)[nH]1 | > 10 mM |
| O=c1[nH]cnc2nc[nH]c12 | > 1 mM |
| Nc1nc2c(ncn2[C@@H]2O[C@H](CO)[C@@H](O)[C@H]2O)c(=O)[nH]1 | > 0.25 mM |

The compound Nc1ncnc2nc[nH]c12 showed Ki equal to > 1 mM
